# measurement target: GST-Syk Full Protein (human) (Homo sapiens, UniProt P43405)
# procedure summary: Syk kinase inhibition test (HTRF method)
# Format: biochemical
# test context: Tables 1-x, compounds A; read-out: sykHTRF ave IC50
# Experimental: Syk Kinase Inhibition Test (HTRF Method) After the compounds were serially diluted with dimethylsulfoxide (DMSO), 10 μL of those 10-fold diluted with kinase buffer (20 mM HEPES pH 7.0, 10 mM MgCl2, 50 mM NaCl, 1 mM 2-ME, 0.05% BSA) was added to opti-plate HTRF-96 (Packard) (final DMSO concentration: 2%). […]
Where a name gives a salt, the structure may show the parent alone.
List of IC50 values.

compound: CNC(=O)N1CCC(N(C)c2ncc(-c3cccc(Nc4cc(C)ccn4)n3)s2)CC1
IC50: < 100 nM
--
compound: CN[C@@H](Cc1ccc(O)cc1)c1ncc(-c2cccc(Nc3cc(C)ccn3)n2)s1
IC50: 100 to 1000 nM
--
compound: CC(O)c1ccnc(Nc2cccc(-c3cnc(N4CC[C@@H](O)C4)s3)n2)c1 (stereo partly shown)
IC50: < 100 nM
--
compound: CNC(=O)C1CCCN(c2ncc(-c3cccc(Nc4cc(C)ccn4)n3)s2)C1 (stereo not shown)
IC50: < 100 nM
--
compound: Cc1ccnc(Nc2cccc(-c3cnc(N4CCc5c(CCC(=O)O)cccc5C4)s3)n2)c1
IC50: < 100 nM
--
compound: Cc1ccnc(Nc2cccc(-c3cnc(N4CCC(C(=O)N(CCO)CCO)CC4)s3)n2)c1
IC50: 100 to 1000 nM
--
compound: O=C(O)CC1CCN(c2ncc(-c3cccc(Nc4ccccn4)n3)s2)CC1 [Compound A-573, dihydrochloride]
IC50: < 100 nM
--
compound: Cc1ccnc(Nc2cccc(-c3cnc(N(C)[C@H]4CC[C@H](CC(=O)O)CC4)s3)n2)c1
IC50: < 100 nM
--
compound: COc1ccnc(Nc2cccc(-c3cnc(N4CCN(C(C)=O)CC4)s3)n2)c1
IC50: < 100 nM
--
compound: CC(=O)NCC(=O)N1CCC(N(C)c2ncc(-c3cccc(Nc4cc(C)ccn4)n3)s2)CC1
IC50: < 100 nM
--
compound: CC(C)(O)c1ccnc(Nc2cccc(-c3cnc(N4CCC(CC(=O)O)CC4)s3)n2)c1 [Compound A-717, dihydrochloride]
IC50: < 100 nM
--
compound: Cc1ccnc(Nc2cccc(-c3cnc(N4CCNCC4)s3)n2)c1
IC50: 100 to 1000 nM
--
compound: COc1ccnc(Nc2cccc(-c3cnc(N4CCC(CC(=O)O)CC4)s3)n2)c1 [Compound A-637, dihydrochloride]
IC50: < 100 nM
--
compound: O=C(O)C1CCN(c2ncc(-c3cccc(Nc4ccccn4)n3)s2)CC1
IC50: 100 to 1000 nM
--
compound: Cc1ccnc(Nc2cccc(-c3cnc(N4C5CCC4CC(CC(=O)O)C5)s3)n2)c1 (stereo not shown)
IC50: < 100 nM
--
compound: Cc1ccnc(Nc2cccc(-c3cnc(N4CC[C@@H](O)C4)s3)n2)c1
IC50: < 100 nM

###

# measurement target: GST-Syk Full Protein (human) (Homo sapiens, UniProt P43405)
# procedure summary: Syk kinase inhibition test (HTRF method)
# Type: biochemical
# test context: Tables 2-x, thiophene compounds B; read-out: sykHTRK ave IC50
# Method: Syk Kinase Inhibition Test (HTRF Method) After the compounds were serially diluted with dimethylsulfoxide (DMSO), 10 μL of those 10-fold diluted with kinase buffer (20 mM HEPES pH 7.0, 10 mM MgCl2, 50 mM NaCl, 1 mM 2-ME, 0.05% BSA) was added to opti-plate HTRF-96 (Packard) (final DMSO concentration: 2%). […]
List of IC50 values.

molecule: Cc1ccnc(Nc2cccc(-c3ccc(C(=O)NC(C)(C)C(=O)O)s3)n2)c1
IC50: 100 to 1000 nM

molecule: Cc1ccnc(Nc2cccc(-c3cc(C)c(C(C)O)s3)n2)c1 (stereo not drawn)
IC50: 100 to 1000 nM

molecule: Cc1ccnc(Nc2cccc(-c3ccc(C(O)CCO)s3)n2)c1 (stereo not drawn)
IC50: 100 to 1000 nM

molecule: Cc1ccnc(Nc2cccc(-c3ccc(C(=O)CCO)s3)n2)c1
IC50: 100 to 1000 nM

molecule: CC(=O)c1ccc(-c2cccc(Nc3cc(CCO)ccn3)n2)s1
IC50: 100 to 1000 nM

molecule: Cc1ccnc(Nc2cccc(-c3ccc(C(C)N)s3)n2)c1 (stereo not drawn)
IC50: 100 to 1000 nM

molecule: Cc1ccnc(Nc2cccc(-c3ccc(CN4CCC(C(=O)O)CC4)s3)n2)c1
IC50: 100 to 1000 nM

molecule: Cc1ccnc(Nc2cccc(-c3ccc(C(=O)O)s3)n2)c1
IC50: 100 to 1000 nM

molecule: Cc1ccnc(Nc2cccc(-c3ccc(C(=O)NC(C)(C)CO)s3)n2)c1
IC50: 100 to 1000 nM

molecule: CC(=O)c1ccc(-c2cccc(Nc3ccccn3)n2)s1
IC50: 100 to 1000 nM

molecule: Cc1ccnc(Nc2cccc(-c3ccc(CN(C)C)s3)n2)c1
IC50: 100 to 1000 nM

molecule: C/C(=N\O)c1ccc(-c2cccc(Nc3cc(Cl)ccn3)n2)s1
IC50: < 100 nM

molecule: Cc1ccnc(Nc2cccc(-c3ccc(CN(C)C(=O)c4ccc(C(=O)O)cc4)s3)n2)c1
IC50: 100 to 1000 nM

molecule: OCc1ccnc(Nc2cccc(-c3cccs3)n2)c1
IC50: 100 to 1000 nM

molecule: Cc1ccnc(Nc2cccc(-c3ccc(C=O)s3)n2)c1
IC50: < 100 nM

molecule: CC(=O)c1ccc(-c2cccc(Nc3ccc(C)cn3)n2)s1
IC50: > 1000 nM

molecule: CC(=O)Nc1cc(C)c(-c2cccc(Nc3cc(C)ccn3)n2)s1
IC50: 100 to 1000 nM

molecule: CC(=O)c1csc(-c2cccc(Nc3cc(C)ccn3)n2)c1
IC50: 100 to 1000 nM

molecule: C/C(=N\OCCO)c1ccc(-c2cccc(Nc3cc(C)ccn3)n2)s1
IC50: < 100 nM

molecule: CCC(O)c1ccc(-c2cccc(Nc3cc(C)ccn3)n2)s1 (stereo not drawn)
IC50: 100 to 1000 nM

molecule: CC(=O)N(Cc1ccc(C(=O)O)cc1)Cc1ccc(-c2cccc(Nc3cc(C)ccn3)n2)s1
IC50: < 100 nM

molecule: Cc1ccnc(Nc2cccc(-c3ccc(C(O)C(C)C)s3)n2)c1 (stereo not drawn)
IC50: 100 to 1000 nM

molecule: Cc1ccnc(Nc2cccc(-c3ccc(CN(Cc4ccc(C(=O)O)cc4)C(=O)C(C)C)s3)n2)c1
IC50: < 100 nM

molecule: Cc1ccnc(Nc2cccc(-c3ccc(CN(Cc4ccc(C(=O)O)cc4)C(=O)CO)s3)n2)c1
IC50: < 100 nM

molecule: Cc1ccnc(Nc2cccc(-c3cc(C)c(C(=O)NC(C)(C)CO)s3)n2)c1
IC50: 100 to 1000 nM

molecule: CON=C(C)c1ccc(-c2cccc(Nc3cc(C)ccn3)n2)s1
IC50: 100 to 1000 nM

molecule: CC(=O)c1ccc(-c2cccc(Nc3cc(OCCN(C)C)ccn3)n2)s1
IC50: 100 to 1000 nM

molecule: Cc1ccnc(Nc2cccc(-c3ccc(C(=O)N[C@H](C(=O)O)C(C)C)s3)n2)c1
IC50: 100 to 1000 nM

molecule: CC(=O)c1ccc(-c2cccc(Nc3nccc(C)c3[N+](=O)[O-])n2)s1
IC50: > 1000 nM

molecule: COC(=O)c1sc(-c2cccc(Nc3cc(C)ccn3)n2)cc1C
IC50: 100 to 1000 nM

molecule: CC(=O)c1ccc(-c2cccc(Nc3cc(OCCO)ccn3)n2)s1
IC50: < 100 nM

molecule: CNC(=O)c1ccc(-c2cccc(Nc3cc(C)ccn3)n2)s1
IC50: < 100 nM

molecule: CC(=O)Nc1ccc(-c2cccc(Nc3cc(C)ccn3)n2)s1
IC50: < 100 nM

molecule: Cc1ccnc(Nc2cccc(-c3ccc(C(=O)N4CCC(O)CC4)s3)n2)c1
IC50: 100 to 1000 nM

molecule: Cc1ccnc(Nc2cccc(-c3ccc(C(=O)NCC(C)O)s3)n2)c1 (stereo not drawn)
IC50: 100 to 1000 nM

molecule: Cc1ccnc(Nc2cccc(-c3ccc(C(=O)NC4CC4)s3)n2)c1
IC50: 100 to 1000 nM

###

# measurement target: GST-Syk Full Protein (human) (Homo sapiens)
# procedure summary: Syk kinase inhibition test (HTRF method)
# Assay type: biochemical
# test context: Tables 1-x, compounds A; read-out: sykHTRF ave IC50
pIC50: −log10 of the molar value. Counter-ions that a name gives are not always drawn.
readout name: pIC50

compound: Cc1ccnc(Nc2cccc(-c3cnc(N4CCC(C(=O)N(C)CCO)CC4)s3)n2)c1
result value: 6.00 to 7.00
--
compound: NC(=O)[C@@H]1CCCN1c1ncc(-c2cccc(Nc3ccccn3)n2)s1
result value: 6.00 to 7.00
--
compound: COC(=O)c1cccc(CN(C)c2ncc(-c3cccc(Nc4cc(C)ccn4)n3)s2)c1
result value: 6.00 to 7.00
--
compound: Cc1ccnc(Nc2cccc(-c3cnc(CSc4ccc(C(=O)O)cc4)s3)n2)c1
result value: 6.00 to 7.00
--
compound: OCCc1ccnc(Nc2cccc(-c3cnc(N4CC[C@@H](O)C4)s3)n2)c1 [Compound A-577, dihydrochloride]
result value: > 7.00
--
compound: Cc1ccnc(Nc2cccc(-c3cnc(CN4C(=O)COCC4=O)s3)n2)c1
result value: 6.00 to 7.00
--
compound: CC(=O)c1ccnc(Nc2cccc(-c3cnc(N4CCC[C@@H](C(=O)O)C4)s3)n2)c1
result value: > 7.00
--
compound: CC(C)(C(=O)O)C1CCN(c2ncc(-c3cccc(Nc4cc(CCO)ccn4)n3)s2)CC1
result value: > 7.00
--
compound: Cc1ccnc(Nc2cccc(-c3cnc(N4CCC(N(C)C(=O)CO)CC4)s3)n2)c1
result value: > 7.00
--
compound: Cc1ccnc(Nc2cccc(-c3cnc(C4CCN(C(=O)c5ccc(O)cc5)CC4)s3)n2)c1
result value: 6.00 to 7.00
--
compound: Cc1ccnc(Nc2cccc(-c3cnc(N4C[C@@H](O)[C@@H](O)C4)s3)n2)c1
result value: > 7.00
--
compound: Cc1ccnc(Nc2cccc(-c3cnc(N4CCN(C(=O)CO)CC4)s3)n2)c1
result value: > 7.00
--
compound: Cc1ccnc(Nc2cccc(-c3cnc(N(C)C4CCNCC4)s3)n2)c1
result value: > 7.00
--
compound: Cc1ccnc(Nc2cccc(-c3cnc(N4CCN(S(C)(=O)=O)CC4)s3)n2)c1
result value: 6.00 to 7.00
--
compound: Cc1ccnc(Nc2cccc(-c3cnc(N4CC[C@@H](N)C4)s3)n2)c1
result value: > 7.00
--
compound: Cc1ccnc(Nc2cccc(-c3cnc(NCc4ccccc4)s3)n2)c1
result value: 6.00 to 7.00
--
compound: Cc1ccnc(Nc2cccc(-c3cnc(N4CCC(CC(C)(C)O)CC4)s3)n2)c1
result value: 6.00 to 7.00
--
compound: Cc1ccnc(Nc2cccc(-c3cnc(N(C)Cc4ccc(C(=O)O)s4)s3)n2)c1
result value: > 7.00
--
compound: Cc1ccnc(Nc2cccc(-c3cnc(N4CCN(CC(=O)N(C)C)C(=O)C4)s3)n2)c1
result value: 6.00 to 7.00
--
compound: Cc1ccnc(Nc2cccc(-c3cnc([C@@H]4COC(=O)N4CC(=O)O)s3)n2)c1
result value: < 6.00
--
compound: CC(=O)N1CCC(N(c2ncc(-c3cccc(Nc4cc(C)ccn4)n3)s2)C(C)C)CC1
result value: > 7.00
--
compound: CC(=O)c1ccnc(Nc2cccc(-c3cnc(N4CCC(C(N)=O)CC4)s3)n2)c1
result value: > 7.00
--
compound: CC(=O)c1ccnc(Nc2cccc(-c3cnc(N4CCC[C@H]4C(N)=O)s3)n2)c1
result value: > 7.00
--
compound: Cc1ccnc(Nc2cccc(-c3cnc(N(C)Cc4ccc(C(=O)O)cc4)s3)n2)c1 [Compound A-574, dihydrochloride]
result value: > 7.00
--
compound: Cc1ccnc(Nc2cccc(-c3cnc(N(C)C4CCC(C(=O)N5CCC(O)CC5)CC4)s3)n2)c1 (centres unmarked)
result value: 6.00 to 7.00
--
compound: Cc1ccnc(Nc2cccc(-c3cnc(COc4ccc(C(=O)O)cc4)s3)n2)c1
result value: > 7.00
--
compound: Cc1ccnc(Nc2cccc(-c3cnc(CN4C[C@H](NCc5ccccc5)[C@@H](O)C4)s3)n2)c1
result value: 6.00 to 7.00
--
compound: Cc1ccnc(Nc2cccc(-c3cnc(N4CCCC(CCC(=O)O)C4)s3)n2)c1 (centres unmarked)
result value: > 7.00
--
compound: CC(=O)N1CC[C@@H](N(C)c2ncc(-c3cccc(Nc4cc(C)ccn4)n3)s2)C1
result value: > 7.00
--
compound: Cc1ccnc(Nc2cccc(-c3cnc(CN4CCC(O)C4)s3)n2)c1 (centres unmarked)
result value: 6.00 to 7.00
--
compound: CNC(=O)C1CCC(N(C)c2ncc(-c3cccc(Nc4cc(C)ccn4)n3)s2)CC1 (centres unmarked)
result value: > 7.00
--
compound: CC(C)(C)c1ccnc(Nc2cccc(-c3cnc(N4CCC(CC(=O)O)CC4)s3)n2)c1 [Compound A-710, dihydrochloride]
result value: > 7.00
